# credit: ChEMBL document CHEMBL3507680

# cytotoxicity at 70.5 h per record follows
assay: Human HepG2 cell viability assay in 384 well format; type: toxicity, cell-based; design: dose 125 nL, time 70.5 hour; concentration not given beside the values; details: HepG2 cells, read-out: Inhibition
// return numeric value only (unit: %, not printed)

Worked examples follow.
| compound | cytotoxicity at 70.5 h / % |
| --- | --- |
| O=C(Nc1cnn(-c2ccccc2Cl)c1)NC1CCC(O)CC1 (stereo unspecified) | 23.9 |
| CN1CC(=O)N(c2cccc(F)c2)CC12CCN(CCO)C2 (stereo unspecified) | -5.44 |
| CCS(=O)(=O)NCCNCc1ccc(Cl)c2cccnc12 | -0.568 |
| Cc1cc2ncc(C(C)NCc3cccnc3)c(C)n2n1 (stereo unspecified) | -3.89 |
| COC(=O)c1c(Cl)c(C)nc2onc(C)c12 | -9.83 |

Next item in the queue.
Q) Quick one: cytotoxicity at 70.5 h of CN(Cc1ccco1)[C@@H]1CN(C(=O)c2ccnnc2)C[C@@H]2CCCO[C@@H]21 ?
A) -7.61

----------
Listing: cytotoxicity at 70.5 h of selected compounds
test: Human HepG2 cell viability assay in 384 well format; format: toxicity, cell-based; parameters: dose 125 nL, time 70.5 hour; concentration not given beside the values; conditions: HepG2 cells, read-out: Inhibition
The response must be a number in % with no trailing unit.

Answered examples (10):
| compound | cytotoxicity at 70.5 h (%) |
| --- | --- |
| CS(=O)(=O)NCCCNC(=O)c1cnc(-c2ccsc2)s1 | -6.18 |
| CC(C)c1ncc2c(n1)CN(Cc1nc3c(F)cccc3[nH]1)CC2 | 21 |
| O=C1N(Cc2ccc(F)c(F)c2)CCCC12CCN(C1CCCC1)C2 (centres undefined) | -2.62 |
| CN(Cc1nc2ccccc2[nH]1)C(=O)CN(C)c1ccccc1 | -2.68 |
| COCCCN1CCN(CCOC)C(C)C1 (centres undefined) | 0.867 |
| COc1cccc(N2CCN(Cc3ncc[nH]3)CC2=O)c1 | -10.6 |
| CCOc1ccc(Cl)cc1CCNC(=O)Cn1ccccc1=O | -3.35 |
| O=c1[nH]c(NCCCO)nc2c1C1(CCCC1)Cc1ccccc1-2 | -23.5 |
| CC(=O)Nc1nc(CN2CCOC(Cn3cncn3)C2)cs1 (centres undefined) | -5.38 |
| CCOCCNC(=O)c1ccn(S(=O)(=O)c2ccc(C)cc2)c1 | -2.02 |

Q) Quick check: cytotoxicity at 70.5 h of CC(C)Cc1nc(CN2CCC(N3CCN(C)C3=O)CC2)no1 ?
A) -1.18

Q) Recorded cytotoxicity at 70.5 h for COc1cccc(N2CCN(C(=O)C(O)c3ccccc3Cl)CC2=O)c1 (centres undefined) , please?
A) -4.36

Q) Requested field: cytotoxicity at 70.5 h. Item: CCNC(=O)[C@@H]1CCCN1C1(C(=O)NC)CCC1
A) -5.11

Q) # query: cytotoxicity at 70.5 h of entry CC(C)c1noc(CCCC(=O)N2CCN(Cc3cccnc3)CC2)n1
A) -13

Q) Fill in the blank: the reported cytotoxicity at 70.5 h of O=C(O)c1cnc(N2CCCC2)nc1COc1ccccc1 is ____.
A) -2.71

Q) GET /values?readout=cytotoxicity at 70.5 h&item= COc1cccc(CNCCc2cccc(C(N)=O)c2)c1
A) -8.65

Q) What value of cytotoxicity at 70.5 h has been reported for the following compound? CCOCC(=O)N1CC[C@@H]2O[C@@H](C)C[C@H]2C1
A) -11.3

Q) For CN(CCc1cnn(C)c1)C(=O)C(c1ccccc1F)N(C)C (centres undefined) , what is its reported cytotoxicity at 70.5 h?
A) 0.281

Q) Can you share its cytotoxicity at 70.5 h? I mean this compound: Cc1nn(C)c(C)c1C1CCCN1C(=O)c1cnccn1 (centres undefined)
A) -2.94

Q) For the compound CC(C)c1noc(CN2CCC(c3ccnn3CCO)CC2)n1 , what cytotoxicity at 70.5 h is on record?
A) -3.73

Q) If you can, please state the reported cytotoxicity at 70.5 h value of CCn1c(=O)nc(N)c2c(-c3ccc(OC)cc3)csc21 .
A) -10.3

Q) Given Cc1ccc(CNS(=O)(=O)CC2=NC(=O)n3cccc3C2=O)cc1 , state its recorded cytotoxicity at 70.5 h.
A) -10.8

Q) Field request: cytotoxicity at 70.5 h | item: Cc1nc(NCCc2ccc(Cl)cc2)cc(C(=O)N2CCOCC2)n1
A) -7.59

Q) I would be grateful if you could share the reported cytotoxicity at 70.5 h for c1cc(COC[C@]23COC[C@H]2CN(CC2CCC2)C3)ccn1 .
A) -11.8
